- Test system: norepinephrine transporter (NET) (Rattus norvegicus)
- Sequence (Q63380 1-617): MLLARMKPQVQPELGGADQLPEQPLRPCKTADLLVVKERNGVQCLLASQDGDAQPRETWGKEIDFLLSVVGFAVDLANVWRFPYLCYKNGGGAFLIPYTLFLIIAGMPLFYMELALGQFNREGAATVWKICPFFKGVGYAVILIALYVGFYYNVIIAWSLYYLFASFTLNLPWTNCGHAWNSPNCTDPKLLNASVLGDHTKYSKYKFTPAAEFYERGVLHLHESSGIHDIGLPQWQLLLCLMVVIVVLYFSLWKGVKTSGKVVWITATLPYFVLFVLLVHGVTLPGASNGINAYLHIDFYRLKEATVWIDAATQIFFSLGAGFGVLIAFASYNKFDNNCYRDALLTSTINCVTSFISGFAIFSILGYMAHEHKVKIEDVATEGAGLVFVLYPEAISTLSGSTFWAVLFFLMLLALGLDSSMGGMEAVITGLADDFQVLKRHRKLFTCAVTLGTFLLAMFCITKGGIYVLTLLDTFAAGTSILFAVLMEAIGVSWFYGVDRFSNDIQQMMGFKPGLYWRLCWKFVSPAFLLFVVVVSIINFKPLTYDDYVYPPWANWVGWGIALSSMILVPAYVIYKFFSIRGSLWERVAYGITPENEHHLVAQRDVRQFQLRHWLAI
- Test protocol: Competitive binding at the NET with [3H]nisoxetine
Please provide measured Ki for the entries that follow.
Express it in nM; write the number only.

Request: Item under review: COc1ccc([C@H]2C[C@@H]3CC[C@H]([C@H]2C(=O)OCCc2ccc(N)c(Br)c2)N3C)cc1 [8g] . Reported Ki?
Result: 1850

Request: Let us now turn to COc1ccc([C@H]2C[C@@H]3CC[C@H]([C@H]2C(=O)OCCc2ccc(N)cc2)N3C)cc1 [8e]
Result: 2200

Request: Let us now turn to COc1ccc([C@H]2C[C@@H]3CC[C@H]([C@H]2C(=O)OCCc2cc(I)c(N)c(I)c2)N3C)cc1 [8j]
Result: 2600

Request: Let us now turn to COC(=O)[C@H]1[C@@H](c2ccc(OC)c(F)c2)C[C@@H]2CC[C@H]1N2C [7c]
Result: 270

Request: Let us now turn to COc1ccc([C@H]2C[C@@H]3CC[C@H]([C@H]2C(=O)OCCc2ccc(NC(C)=O)cc2)N3C)cc1 [8f]
Result: 1460

Request: Let us now turn to COc1ccc([C@H]2C[C@@H]3CC[C@H]([C@H]2C(=O)OCCc2ccc([N+](=O)[O-])cc2)N3C)cc1 [8d]
Result: 330

Where these numbers come from: paper PMC2841478
